Test system: OVCAR-3 ovarian
Assay: NCI tumour cell line growth inhibition, 48 h
Measurement label: TGI

Worked set:
INSERT INTO measurements (compound, result) VALUES
  ('N#Cc1cccc(C=NC23CC4CC(CC(C4)C2)C3)c1', '> 100 µM'),
  ('Cc1cc(S(=O)(=O)Nc2n[nH]c(N)n2)c(Cl)cc1Cl', '> 10 µM'),
  ('Cc1ccc(NC(=O)CCc2n[nH]c(=S)o2)cc1', '> 100 µM');

Query: Using the record for CCCCOP(C)(=O)C(NC(=O)OCC)(C(F)(F)F)C(F)(F)F (configuration not stated) , report its TGI.
Reply: > 100 µM

Query: // same read-out, input: `CC(=O)/C=C/c1ccc(OCc2ccc(Cl)cc2)cc1`
Reply: > 1000 µM

Query: Quick one: CCC1(CN(C)C)CC/C(=C\c2ccc(OC)c(OC)c2)C1=O (configuration not stated)
Reply: > 100 µM

Query: Request: `O=C(O)/C=C/c1ccc2c(c1)CC1(Cc3ccccc3C1)C2`
Reply: > 100 µM
